Item-by-item account of half-life
Method: clinical
Condition Label: human, in vivo, iv, t1/2
Supply the numeric figure in h, leaving out any unit text.

Query string: Returns the measured half-life for the input compound. Input: `CC[C@H](C)C(=O)O[C@H]1C[C@H](O)C=C2C=C[C@H](C)[C@H](CC[C@@H](O)C[C@@H](O)CC(=O)O)[C@H]21`
Result string: 0.78

----------
Method: clinical
Condition Label: human, in vivo, iv
Classes are defined on MRT with ranges lowest: < 2 h; middle: ≥ 2 h and < 6 h; highest: ≥ 6 h

Example results:
CO/N=C(\C(=O)N[C@@H]1C(=O)N2C(C(=O)O)=C(CSc3nc(=O)c(=O)[nH]n3C)CS[C@H]12)c1csc(N)n1 : middle
CCc1cccc2cc(C(O)CNC(C)(C)C)oc12 (stereo not drawn) : middle
CC1=C(C(=O)O)N2C(=O)[C@@H](NC(=O)[C@H](N)c3ccc(O)cc3)[C@H]2SC1 : lowest

Query string: Category lookup for the compound `CN[C@@H]1[C@@H](O)[C@@H](O[C@@H]2[C@@H](O)[C@H](O[C@H]3O[C@H](CN)[C@@H](O)[C@H](O)[C@H]3O)[C@@H](N)C[C@H]2NC(=O)[C@@H](O)CN)OC[C@]1(C)O`
Result string: middle

Query string: Lab log: Cc1cccc(Nc2ccncc2S(=O)(=O)NC(=O)NC(C)C)c1 [TORSEMIDE] — assign MRT category
Result string: highest

Query string: Note: place this compound into its band. Item: `CC(=O)[C@]1(O)Cc2c(O)c3c(c(O)c2[C@@H](O[C@H]2C[C@H](N)[C@H](O)[C@H](C)O2)C1)C(=O)c1ccccc1C3=O`
Result string: highest

Query string: Pick a category. Item: C[C@H]1[C@H](OC(=O)CCC(=O)O)O[C@@H]2O[C@@]3(C)CC[C@H]4[C@H](C)CC[C@@H]1[C@@]24OO3 [ARTESUNATE]
Result string: lowest

Query string: Tag the class for `CC(=N)N1CC[C@H](SC2=C(C(=O)O)N3C(=O)[C@H]([C@@H](C)O)[C@H]3C2)C1`
Result string: lowest

Query string: Band for the recorded MRT of `CN1C[C@H](C(=O)N[C@]2(C)O[C@@]3(O)[C@@H]4CCCN4C(=O)[C@H](Cc4ccccc4)N3C2=O)C=C2c3cccc4[nH]cc(c34)C[C@H]21` ?
Result string: middle

Query string: Assign a category based on measured MRT for `O=C1CN(/N=C/c2ccc([N+](=O)[O-])o2)C(=O)N1` and give only the class name.
Result string: lowest

Query string: Hi there! Could you help me figure out the category for O=C(NCCN1CCOCC1)c1ccc(Cl)cc1 [MOCLOBEMIDE] please?
Result string: lowest

Query string: Band assignment needed for `CN1C(=O)CC[C@H]1c1cccnc1` please.
Result string: highest

Query string: Note: place this compound into its band. Item: `CCCC(=O)N1CCCN(c2nc(N)c3cc(OC)c(OC)cc3n2)CC1`
Result string: middle

Query string: Sort C/C(=C\c1csc(C)n1)[C@@H]1C[C@@H]2O[C@]2(C)CCC[C@H](C)[C@H](O)[C@@H](C)C(=O)C(C)(C)[C@@H](O)CC(=O)N1 [IXABEPILONE] into one of the categories.
Result string: highest

Source of measurements: ChEMBL document CHEMBL1614632
